Measured Relative cAMP EC50, listed per entry.
# ASSAYED SYSTEM: human glucagon receptor (human) (UniProt P47871)
# Sequence (P47871 26-477): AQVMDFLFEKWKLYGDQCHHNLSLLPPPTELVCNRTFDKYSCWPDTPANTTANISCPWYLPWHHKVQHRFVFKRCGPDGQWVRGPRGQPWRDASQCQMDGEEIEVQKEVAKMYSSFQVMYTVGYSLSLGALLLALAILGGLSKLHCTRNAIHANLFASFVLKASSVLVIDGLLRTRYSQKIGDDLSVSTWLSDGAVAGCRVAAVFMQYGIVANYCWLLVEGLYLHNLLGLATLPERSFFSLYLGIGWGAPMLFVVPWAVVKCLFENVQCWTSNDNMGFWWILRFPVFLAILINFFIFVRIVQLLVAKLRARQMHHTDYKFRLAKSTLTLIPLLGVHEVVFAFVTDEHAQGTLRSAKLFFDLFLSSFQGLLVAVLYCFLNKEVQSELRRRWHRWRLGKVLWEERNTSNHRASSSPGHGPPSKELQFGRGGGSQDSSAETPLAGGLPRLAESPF
# PROCEDURE DETAILS: cell-based or functional assay
Starred links: 1 amine or outer side, 2 acyl side, 3 side chain; linkers in the order of their positions; H or OH if unused. Non-standard residues stand in square brackets, D forms with d. Groups on a side chain read outwards from the residue. No end group written: not given here. *: point of attachment. C20 diacid = O=C(O)CCCCCCCCCCCCCCCCCCC(=O)*; Phe(4-CN) = N#Cc1ccc(C[C@H](N)C(=O)O)cc1; αMePhe(2-F) = C[C@](N)(Cc1ccccc1F)C(=O)O; γGlu = O=C(O)[C@H](CCC(=O)[*:2])N[*:1]; AEEA = NCCOCCOCC(=O)O; Aib = CC(C)(N)C(=O)O
Please state the figure in nM; there is no need to write the unit.

Example entries begin here.
- BINDER: "YXQGTXTSDXSIXLDKKAQXXFIEYLTEGGPSSGEPPPSGSEE (Aib, αMeF(2F), 4Pal, αMeL, Orn; γGlu2-C18 diacid Lys; amide; synthetic construct; SITE 2: note = 2-Aminoisobutyric Acid; SITE 6: note = alpha-methyl-2-fluoro-L-phenylalanine; SITE 10: note = 3-(4-Pyridyl)-L-alanine; SITE 13: note = alpha-methyl-leucine; SITE 17: note = Lysine is chemically modified through conjugation of the epsilon-amino group of the Lysine) [Example 638]"
  Relative cAMP EC50, nM: 14
- BINDER: "YXQGTXTSDXXIXLDXKAQXXFIEXLIEGGPSSGAPEPSEG (synthetic construct; SITE 2: note = 2-Aminoisobutyric Acid; SITE 6: note = alpha-methyl-2-fluoro-L-phenylalanine; SITE 10: note = 3-(4-Pyridyl)-L-alanine; SITE 11: note = alpha-methyl-L-serine; SITE 13: note = alpha-methyl-leucine; SITE 16: note = L-ornithine; SITE 17: note = Lysine is chemically mo) [Example 429]"
  Relative cAMP EC50, nM: 1.19

Fill in the blank: the reported Relative cAMP EC50 of YXQGTXTSDXXIXLDXKAQXNFIEXLQEGGPSSGEPPPEGTE (synthetic construct; SITE 2: note = 2-Aminoisobutyric Acid; SITE 6: note = alpha-methyl-2-fluoro-L-phenylalanine; SITE 10: note = 3-(4-Pyridyl)-L-alanine; SITE 11: note = alpha-methyl-L-serine; SITE 13: note = alpha-methyl-leucine; SITE 16: note = L-ornithine; SITE 17: note = Lysine is chemically mo) [Example 526] is ____.
8.62

Fill in the blank: the reported Relative cAMP EC50 of YXQGTFTSDFSKXLDKKAQXAFIEYLLEGGPSSGAPPPXGE (synthetic construct; SITE 2: note = 2-Aminoisobutyric Acid; SITE 13: note = alpha-methyl-leucine; SITE 17: note = Lysine is chemically modified through conjugation of the epsilon-amino group of the Lysine side chain with (2-[2-(2-Amino-ethoxy)-ethoxy]-acetyl)-(gamma-Glu)-CO-(CH2) 18-CO2H; SITE 20: n) [Example 53] is ____.
4.19

Fill in the blank: the reported Relative cAMP EC50 of YXQGTXTSDYSILLDKKAQXXFIEYLEEGGPSSGAPPPS (synthetic construct; SITE 2: note = 2-Aminoisobutyric Acid; SITE 6: note = alpha-methyl-2-fluoro-L-phenylalanine; SITE 17: note = Lysine is chemically modified through conjugation of the epsilon-amino group of the Lysine side chain with (gamma-Glu)2-CO-(CH2)16-CO2H; SITE 20: note = 2-Aminoisobutyric) [Example 415] is ____.
8.64

Fill in the blank: the reported Relative cAMP EC50 of YXQGTXTSDXXIXLDXKAQXNFIEXLQEGGPSSGEPPPEGTGE (synthetic construct; SITE 2: note = 2-Aminoisobutyric Acid; SITE 6: note = alpha-methyl-2-fluoro-L-phenylalanine; SITE 10: note = 3-(4-Pyridyl)-L-alanine; SITE 11: note = alpha-methyl-L-serine; SITE 13: note = alpha-methyl-leucine; SITE 16: note = L-ornithine; SITE 17: note = Lysine is chemically mo) [Example 527] is ____.
6.99

Fill in the blank: the reported Relative cAMP EC50 of YXQGTFTSDFSKXLDKKAQXQFIEYLLEGGPSSGAPPPSEG (synthetic construct; SITE 2: note = 2-Aminoisobutyric Acid; SITE 13: note = alpha-methyl-leucine; SITE 17: note = Lysine is chemically modified through conjugation of the epsilon-amino group of the Lysine side chain with (2-[2-(2-Amino-ethoxy)-ethoxy]-acetyl)-(gamma-Glu)-CO-(CH2) 16-CO2H; SITE 20: n) [Example 51] is ____.
5.15

Fill in the blank: the reported Relative cAMP EC50 of Y[Aib]QGT[αMePhe(2-F)]TSD[Phe(4-CN)]SKLLDKIAQK([AEEA-γGlu-C20 diacid])AFIEYLIEGGPSSGEPPPSGS-NH2 [Example 364] is ____.
10.2

Fill in the blank: the reported Relative cAMP EC50 of YXQGTXTSDXSIXLDXKAQXEFIEXLIEGGPSSGAPPPSGE (non-natural residues; acylated Lys; C-terminal amide; synthetic construct; SITE 2: note = 2-Aminoisobutyric Acid; SITE 6: note = alpha-methyl-2-fluoro-L-phenylalanine; SITE 10: note = 3-(4-Pyridyl)-L-alanine; SITE 13: note = alpha-methyl-leucine; SITE 16: note = L-ornithine; SITE 17: note = Lysine is chemically modified through conjugation of the epsil) [Example 616] is ____.
6.58

Fill in the blank: the reported Relative cAMP EC50 of YXQGTXTSDXXIXLDXKAQXEFIEXLIEGGPSSGEPPPGGE (non-natural residues; lipidated Lys AEEA-γGlu-C18 diacid; C-term amide; synthetic construct; SITE 2: note = 2-Aminoisobutyric Acid; SITE 6: note = alpha-methyl-2-fluoro-L-phenylalanine; SITE 10: note = 3-(4-Pyridyl)-L-alanine; SITE 11: note = alpha-methyl-L-serine; SITE 13: note = alpha-methyl-leucine; SITE 16: note = L-ornithine; SITE 17: note = Lysine is chemically mo) [Example 1145] is ____.
1.07

Fill in the blank: the reported Relative cAMP EC50 of YXQGTFTSDFSKXLDKKAQXAFIEYLLAGGPSSGEPPPSEG (Aib, αMeL; acylated Lys; C-terminal amide; synthetic construct; SITE 2: note = 2-Aminoisobutyric Acid; SITE 13: note = alpha-methyl-leucine; SITE 17: note = Lysine is chemically modified through conjugation of the epsilon-amino group of the Lysine side chain with (2-[2-(2-Amino-ethoxy)-ethoxy]-acetyl)-(gamma-Glu)-CO-(CH2) 18-CO2H; SITE 20: n) [Example 1] is ____.
3.72

Fill in the blank: the reported Relative cAMP EC50 of YXQGTXTSDXXIXLDXKAQXEFIEXLIEGGPSSGAPPPSGGGE (non-natural residues, AEEA-γGlu-C18 diacid lysine acylation, C-terminal amide; synthetic construct; SITE 2: note = 2-Aminoisobutyric Acid; SITE 6: note = alpha-methyl-L-phenylalanine; SITE 10: note = 3-(4-Pyridyl)-L-alanine; SITE 11: note = alpha-methyl-L-serine; SITE 13: note = alpha-methyl-leucine; SITE 16: note = L-ornithine; SITE 17: note = Lysine is chemically modified th) [Example 1168] is ____.
2.63

Where do the numbers come from? From patent US20240270821A1.
